This collection of values is drawn from patent US9034886B2.

Tested on: Hep3B2.1-7 human liver cancer cells
experimental-protocol: In vitro anti-proliferative effect, CCK-8 method, Hep3B
Type: cell-based
settings: Homo sapiens; Hep3B cell strain, compound at 10 μM, CCK-8 method
readout-name: inhibition at 10 µM (%)
Kindly provide the numeric value in % only, without the unit symbol.

Use the examples below as a reference point.
compound	readout-name	measurement-units	value-reported
COCCOc1cc2ncnc(Nc3ccc(C(=O)Nc4ccccc4N)cc3)c2cc1OCCOC [Compound V-15]	inhibition at 10 µM	%	16.3
Nc1cnccc1NC(=O)c1ccc(CNc2ncnc3ccccc23)cc1 [Compound V-26]	inhibition at 10 µM	%	11.7
COCCOc1cc2ncnc(Nc3ccc(C(=O)Nc4ccncc4N)cc3)c2cc1OCCOC [Compound V-16]	inhibition at 10 µM	%	24.8
COc1cccc2c(Nc3ccc(C(=O)Nc4ccccc4N)cc3)ncnc12 [Compound V-9]	inhibition at 10 µM	%	27
Nc1ccc(F)cc1NC(=O)c1ccc(Nc2ncnc3c(F)cccc23)cc1 [Compound V-14]	inhibition at 10 µM	%	7.2

In: Tell me its inhibition at 10 µM given Nc1ccccc1NC(=O)c1ccc(Nc2ncnc3ccccc23)cc1 [Compound V-1] as the entry.
Out: 2.6

In: Output inhibition at 10 µM of Nc1ccc(F)cc1NC(=O)c1ccc(Nc2ncnc3ccccc23)cc1 [Compound V-3]
Out: -12.3

In: Tell me inhibition at 10 µM reported for COc1cc2ncnc(Nc3ccc(C(=O)Nc4cc(-c5ccccc5)ccc4N)cc3)c2cc1OC [Compound V-24]
Out: 14.3

In: Identify inhibition at 10 µM associated with the compound COc1cccc2c(Nc3ccc(C(=O)Nc4cc(F)ccc4N)cc3)ncnc12 [Compound V-10]
Out: 3.7
